What z-score was measured for each of the following?
assay: Components of the Cytosolic LPS Sensing Pathway: Gene Identification via Genome-wide siRNA Screen; details: RAW264.7 macrophages, IL-1a HTRF, actives lie on both sides, screened at 100 nM (by protocol), cells primed 5 h with Pam3CSK4 first
In all, about 53,000 sequences went through this assay and about 3,700 (7%) were called active. The sample as a whole holds a higher share of actives than the screen did.
Numbers only.

// below: answered sequences
> print(dat)
                         sequence.input  experimental.result
1   GGCUUUUUUGCCAUUGCUATT against Wnt9b                 0.19
2  GGGCCACAUGUGUUCACUATT against Shisa5                -2.35

Please give z-score for each item listed below.
1. CGUGAGGUUAUGAUGUAUUTT against Gm5444
2. GGUCAGAAAAGUAUGUUGGTT against Naip5
3. GGAGCAGAGAAACUUCUCGTT against Gigyf1

-1.3
0.208
-2.09

Hey, can you go through the list below and give me z-score for every item?
1. CCCGGACCUUGAAUAAGCATT against Piwil4
2. UCACCAUCUUGAAGAUUCGTT against Olfr486

1: -1.06; 2: -0.792

# batch size: 7; output z-score per entry
1. GGAAAUGAACUCAUAGCCATT against Olfr121
2. CCUCUCAUGUAUCCUGUGATT against Olfr292
3. UUUCAAUCUGUAGCUUUCCTT against Krt86
4. GAGAAUGAGUUCUGCCCAGTT against Lhb
5. CGCAGCUUUCUAUACUGGCTT against Ngf
6. GCGGUUCCAAGAUUGUUGUTT against Armc8
7. GAGGGCUCUACAGUUUUUATT against Atp5g3

1. 0.0495
2. -0.205
3. 0.071
4. 2.24
5. 2.41
6. 0.109
7. 0.952

Items follow; give z-score for each.
1. CCUUAGUAACAGCACUAGCTT against Lrfn2
2. CCAUGUUCGGACGUGGUCUTT against Shkbp1
3. GGUUUCGAGAAAACAACAATT against Miip
4. GGGCUGACUUCCUAUGACCTT against Adra2c
5. GUUUCAGUGCAGCCAUUACTT against Olfr518
6. GGAUUUUGUCGGCAAGGCCTT against Ap5s1
7. UGAAUAAGGUGUGGUGCUCTT against Vmn1r148

1. -0.228
2. -1.17
3. 0.566
4. 2.14
5. -0.747
6. -3.12
7. 0.607

For each of the sequences below, state z-score.
1. GGUGCCAUCCCAAACUUUATT against Frat2
2. GAGCUGGGAGGUUUCACAGTT against Tspo
3. GGCCUUGGUGAAAAUGCAGTT against Plaat1
4. GGGAAGAAAGGAUGGGAAATT against Fev
5. GGUUAUUACGUAGUUGGUATT against Cd46

0.788
-1.42
-2.07
0.355
0.683

Could you tell me z-score for each of these sequences? They are listed below.
1. GGUCAAAGUGAUUGUGUGUTT against Cdh16
2. CCUACUUGGGAAAGUUCGCTT against Egr3
3. GGAGAUUCAGAAGAUCCUCTT against Isoc2b
4. GGAUUACGGUGGGAUCAUGTT against Faxc
5. GGAUGAAAGUUGUAUGUAUTT against Ctsk

1: 0.555; 2: 1.5; 3: 2.49; 4: -1.38; 5: -0.606

Kindly give each listed record's z-score.
1. GGUCUUCAACAACAUUAUCTT against Hid1
2. GGAUGAGGAGGAUACAAAGTT against Eif3c
3. GGAUUUAUCCUGGUGACUUTT against Cox20
4. CCUACUGUCUAAGAAUACATT against Olfr1138

[1, 0.228, 2.49, -1.65]

Parameters: items (list). Returns: z-score for each item.
1. GCGCACACCCUACUUGAUUTT against Pcdh20
2. GGAGCAUUUUAUUCAGAUGTT against Rad23b
3. GGAGCUGGAGAAGUUACUUTT against Amigo3
4. GGCCAAUAGGACAUAUCUATT against Qprt
5. GGUUUUCUAGUUUGAGUUUTT against Atp1b2
6. GGACGACUGGAAGUUUUCUTT against 5830411N06Rik

[1.08, 2.22, 2.06, -0.443, 1.29, 3.95]

====

test: Components of the Cytosolic LPS Sensing Pathway: Gene Identification via Genome-wide siRNA Screen; settings: RAW264.7 macrophages, IL-1a HTRF, actives lie on both sides, screened at 100 nM (by protocol), cells primed 5 h with Pam3CSK4 first;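 note: robust z of the log signal after scaling to non-targeting control siRNA wells of the plate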
The whole screen tested about 53,000 sequences, of which about 3,700 (7%) were called active. Shown is part of a subset that was picked to be rich in actives.
measurement kind: z-score

Completed entries (count: 4):
> print(dat)
                          sequence.input  experimental.result
1    GGGCAACUAUCUUCAAAAATT against Nxnl2     0.328 (inactive)
2  CCAGAAACGAUGCAUUCAUTT against Olfr124           2 (active)
3     GGCAACAAUGGUUGUCUUGTT against Ctsr     0.515 (inactive)
4     GGGAAUUUCGGCUGUUUUATT against Cts8      1.85 (inactive)

Provide z-score values for the following items, in order.
1. GGAUGGAUGUUUGCAUAAATT against Msx2
2. GGAAAACCAGCACAAUUUATT against Cadm1
3. GGUGAAAAGUCCUGCCAAGTT against Nefh
4. GGAUUUUUACAGAGACAUGTT against Actr6

["5.06 (active)", "2.49 (active)", "0.408 (inactive)", "-0.821 (inactive)"]

====

assay: Components of the Cytosolic LPS Sensing Pathway: Gene Identification via Genome-wide siRNA Screen; conditions: RAW264.7 macrophages, IL-1a HTRF, actives lie on both sides, screened at 100 nM (by protocol), cells primed 5 h with Pam3CSK4 first;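 note: robust z of the log signal after scaling to non-targeting control siRNA wells of the plate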
Hit rate of the full screen: of about 53,000 sequences, about 3,700 (7%) were called active. Many of the other results were omitted from the sample, so actives are more common in it than they were.
Would you please tag the item fulfilled when its z-score is -0.3 or above, and not fulfilled when it is below?

Consider the following illustrative entries.
> print(dat)
                             sequence.input  discrete.label
1  GGGUAUUAAGCAGGGAUCGTT against 1810009A15Rik       fulfilled
2       CCUCUGUUGAACCAUCAUUTT against Gpr21       fulfilled
3         GGACACCAUGCCACAGACATT against Hlx   not fulfilled
4      UCCUUGCUGUCCUAACCAUTT against Gpr119       fulfilled
5        GGUCGGGAUUUAAUUUGUATT against Bbs9       fulfilled

Hi team, for GGGAUGAUUCAAUGGAUAATT against Tbx22 , is the recorded z-score at or above -0.3?
fulfilled

Textbook exercise: given the entry GGAAUUUAUUCACCCAGACTT against Sirt2 , state whether its z-score is greater than or equal to -0.3.
not fulfilled

====

test: Components of the Cytosolic LPS Sensing Pathway: Gene Identification via Genome-wide siRNA Screen; details: RAW264.7 macrophages, IL-1a HTRF, actives lie on both sides, screened at 100 nM (by protocol), cells primed 5 h with Pam3CSK4 first;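 note: robust z of the log signal after scaling to non-targeting control siRNA wells of the plate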
Among all 53,000 sequences or so, about 3,700 (7%) were called active. The entries come from a sample that favours actives as a whole.
Output Y for z-score not less than -0.3; output N otherwise.

// known answers, use as guide
> print(dat)
                             sequence.input  discrete.label
1        GGGCUAUUAAAUGAUUUCATT against Pax1               Y
2  GUGUGGACAACUCCUGAGUTT against 9630041A04Rik               N
3    CCUUAUUUUACGGAACUGCTT against Olfr1018               Y
4     ACUUCCUGAUUGAGAGAAATT against Olfr497               N
5      GGUCAGGCUGAGGAAUUCATT against Cyp2s1               N
6        GGCUUUUGUCAAGCAGCACTT against Ins2               N

Form field: z-score at least -0.3? Entry: GGCAUUUCUUUCACUAGCUTT against Olfr618
Y

Reported z-score reaches at least -0.3 for GGUGGUAUCACCUCUAUCATT against Cfap52 ?
N

====

experiment: Components of the Cytosolic LPS Sensing Pathway: Gene Identification via Genome-wide siRNA Screen; settings: RAW264.7 macrophages, IL-1a HTRF, actives lie on both sides, screened at 100 nM (by protocol), cells primed 5 h with Pam3CSK4 first;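 note: robust z of the log signal after scaling to non-targeting control siRNA wells of the plate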
The campaign covered roughly 53,000 sequences. About 3,700 (7%) were called active. Many of the other results were omitted from the sample, so actives are more common in it than they were.
Provide the reported z-score of each item.
One number for each entry.

Example sequences with recorded z-score:
> print(dat)
                          sequence.input  measurement.kind  experimental.result
1  GGAAAAUGCUCACAUAGUGTT against Pak1ip1           z-score                0.442
2    GCCGUACCAUGUAAUGCCATT against Naa60           z-score                -2.05
3    CGAGUUUGACCGGACCAUCTT against Ssna1           z-score                 2.44
4    GGAAAGUUCUAAUGUUCAUTT against Sumo1           z-score                 1.55
5      GGAUCCUGAAACAGUUCAATT against Atm           z-score               -0.218

Hi, could you look up z-score for each item in my list?
1. CCUUUUUUAUAUCCACUCATT against Bahcc1
2. GGAGGAAAAUGUCCUUGUUTT against Pth

1. 1.22
2. 0.25

// each listed sequence needs a value for z-score
1. GCUGGUGAACCAAAAACUCTT against Ccdc3
2. GGGUGGUGUUCCAUGACAGTT against Ubp1
3. GGUGCUCACGUUUUUCUUATT against B3galnt1

-0.366
-1.82
0.348
